- Test system: Porcine Atria myofibrils
- Test Method Notes: Myofibril ATPase assay (PK/LDH NADH-coupled), atria myofibrils
- Format: biochemical
- Recorded Conditions: Table 8
Measurement Name: Porcine Atria IC25 (nM)

Example results:
CC(NC(=O)CN1Cc2c(ccc(F)c2F)NC1=O)c1cc(C#N)c(F)cn1 (single isomer, unassigned) [Compound B53]    90
C[C@H](NC(=O)CN1Cc2c(ccc(F)c2F)NC1=O)c1ccc2ccccc2n1 [Compound B289]    100000
C[C@H](C(=O)N[C@H](CO)c1ccc(F)cc1F)N1Cc2c(Cl)cccc2NC1=O [Compound B213]    97430
N#Cc1cnc2c(c1)CC[C@@H]2NC(=O)CN1C(=O)Nc2ccc(F)cc2C12CC2 [Compound B295]    250
C[C@H](NC(=O)CN1C(=O)Nc2ccccc2C12CCCCC2)c1ccc(F)cc1F [Compound B246]    100000

1: C[C@H](NC(=O)CN1Cc2c(C#N)cccc2NC1=O)c1ncc(F)cc1F [Compound B154]
2: C[C@@H](NC(=O)CN1Cc2cc(F)cc(Cl)c2NC1=O)c1ccc(C#N)cc1F [Compound B40]
*Q* Param metric = Porcine Atria IC25; output whichever of 1 , 2 has the minimum value. In your reply, give the label of the chosen option.
*A* 1

I: C[C@H](NC(=O)CN1Cc2cc(CN(C)C)ccc2NC1=O)c1ncc(C#N)cc1F [Compound B252]
II: O=C(CN1Cc2c(ccc(F)c2F)NC1=O)N[C@@H](CO)c1ncc(F)cc1F [Compound B176]
III: CC(C)C[C@@H](C(=O)N[C@@H](C)c1ccc(F)cc1F)N1Cc2c(ccc(F)c2F)NC1=O [Compound B60]
IV: Cc1cc(C#N)nnc1[C@H](C)NC(=O)CN1C(=O)Nc2ccc(F)cc2C12CC2 [Compound B329]
*Q* Arrange these 4 compounds in increasing order of Porcine Atria IC25. List the labels according to the requested ordering.
*A* II, IV, III, I

a: C[C@H](NC(=O)[C@H](Cc1ccccc1)N1Cc2cc(F)ccc2NC1=O)c1ccc(F)cc1F [Compound B219]
b: C[C@@H](NC(=O)CN1C(=O)Nc2ccc(F)cc2C12CC2)c1cnc(C#N)cn1 [Compound B336]
c: N#Cc1cnc2c(c1)OCC2NC(=O)CN1Cc2c(ccc(F)c2F)NC1=O (single isomer, unassigned) [Compound B65]
d: C[C@H](NC(=O)[C@H](C)N1Cc2c(ccc(F)c2F)NC1=O)c1ncc(C#N)cc1F [Compound B278]
*Q* Rank descending by Porcine Atria IC25. List the labels according to the requested ordering.
*A* a, b, c, d

P: C[C@@H](NC(=O)CN1Cc2c(F)cc(C#N)cc2NC1=O)c1ccc(C#N)cc1F [Compound B10]
Q: [2H]C1([2H])c2c(ccc(F)c2F)NC(=O)N1CC(=O)N[C@H](C)c1ncc(C#N)cc1F [Compound B367]
*Q* Which shows the larger Porcine Atria IC25 value: P or Q ? In your reply, give the label of the chosen option.
*A* P
